In this section, each of the binders is paired with its reported % Positive cells.
# Study system: T1, human CCR8 (human, UniProt P51685 1-355)
# T1 construct: Native CCR8 on human PBMC (CCR8+ CD3+ or CCR8+ CD4+ lymphocytes); also called chemokine (C-C motif) receptor 8
# T1 sequence (P51685 whole entry): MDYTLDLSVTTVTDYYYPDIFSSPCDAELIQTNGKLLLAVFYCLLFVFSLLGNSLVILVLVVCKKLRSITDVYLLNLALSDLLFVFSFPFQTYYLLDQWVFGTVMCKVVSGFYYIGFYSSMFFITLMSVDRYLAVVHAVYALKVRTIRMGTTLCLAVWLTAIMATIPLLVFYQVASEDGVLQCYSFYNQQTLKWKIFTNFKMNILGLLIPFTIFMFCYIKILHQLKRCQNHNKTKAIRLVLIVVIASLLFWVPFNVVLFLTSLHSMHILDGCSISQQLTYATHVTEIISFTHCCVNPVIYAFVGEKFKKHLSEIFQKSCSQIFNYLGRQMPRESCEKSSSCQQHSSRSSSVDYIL
# Assay protocol: flow blocking, PBMC CCR8+CD4+; competitor PE-AB1
Numbers only here, please. The scale is %.

For orientation, consider the following solved cases.
[[record]]
binder = "AB8 (antibody, V domains shown, Hybridoma monoclonal; also called antibody 8; clone 8) VH: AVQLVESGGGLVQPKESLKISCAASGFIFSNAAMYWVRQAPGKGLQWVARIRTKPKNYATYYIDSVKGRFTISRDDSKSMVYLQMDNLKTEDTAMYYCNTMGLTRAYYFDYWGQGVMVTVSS VL: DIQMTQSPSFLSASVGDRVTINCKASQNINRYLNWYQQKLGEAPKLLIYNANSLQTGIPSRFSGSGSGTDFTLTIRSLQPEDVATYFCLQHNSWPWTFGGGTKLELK"
unit_spec = "%"
val = 2.2

[[record]]
binder = "AB13 (antibody, V domains shown, Hybridoma monoclonal; also called antibody 13; clone 13) VH: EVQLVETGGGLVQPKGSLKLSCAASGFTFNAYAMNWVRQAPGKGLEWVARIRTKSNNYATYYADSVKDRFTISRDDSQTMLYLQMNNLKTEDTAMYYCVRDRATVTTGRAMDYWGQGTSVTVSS VL: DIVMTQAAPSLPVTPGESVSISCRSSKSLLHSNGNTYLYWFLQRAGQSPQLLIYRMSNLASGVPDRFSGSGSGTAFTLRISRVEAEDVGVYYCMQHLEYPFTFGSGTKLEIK"
unit_spec = "%"
val = 2.12

[[record]]
binder = "AB12 (antibody, V domains shown, Hybridoma monoclonal; also called antibody 12; clone 12) VH: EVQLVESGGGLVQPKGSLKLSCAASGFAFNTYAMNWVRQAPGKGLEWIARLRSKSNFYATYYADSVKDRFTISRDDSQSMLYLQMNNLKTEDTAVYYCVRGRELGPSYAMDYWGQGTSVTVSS VL: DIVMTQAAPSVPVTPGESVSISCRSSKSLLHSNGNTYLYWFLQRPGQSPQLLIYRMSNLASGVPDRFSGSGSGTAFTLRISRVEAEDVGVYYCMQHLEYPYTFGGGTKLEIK"
unit_spec = "%"
val = 2.01

[[record]]
binder = "AB1 (antibody, V domains shown, Hybridoma monoclonal (mouse or rat); Same VH/VL entries as AB2; also called antibody 1; clone 1) VH: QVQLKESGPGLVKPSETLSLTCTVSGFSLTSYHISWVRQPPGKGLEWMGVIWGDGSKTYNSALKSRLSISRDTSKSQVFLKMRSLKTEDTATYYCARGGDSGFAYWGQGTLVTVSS VL: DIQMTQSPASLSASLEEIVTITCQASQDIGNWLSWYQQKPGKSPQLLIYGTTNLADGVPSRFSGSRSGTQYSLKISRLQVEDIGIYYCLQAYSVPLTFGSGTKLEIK"
unit_spec = "%"
val = 0.02

[[record]]
binder = "AB14 (antibody, V domains shown, Hybridoma monoclonal; Same VH/VL entries as AB15; also called antibody 14; clone 14) VH: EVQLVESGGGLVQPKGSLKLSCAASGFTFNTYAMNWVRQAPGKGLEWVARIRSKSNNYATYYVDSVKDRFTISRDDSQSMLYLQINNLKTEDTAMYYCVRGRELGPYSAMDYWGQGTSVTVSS VL: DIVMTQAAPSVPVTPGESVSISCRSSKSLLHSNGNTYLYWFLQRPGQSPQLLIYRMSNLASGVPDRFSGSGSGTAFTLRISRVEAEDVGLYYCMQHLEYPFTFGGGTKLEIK"
unit_spec = "%"
val = 1.94


Now for a further binder.
The reported value for AB10 (antibody, V domains shown, Hybridoma monoclonal; also called antibody 10; clone 10) VH: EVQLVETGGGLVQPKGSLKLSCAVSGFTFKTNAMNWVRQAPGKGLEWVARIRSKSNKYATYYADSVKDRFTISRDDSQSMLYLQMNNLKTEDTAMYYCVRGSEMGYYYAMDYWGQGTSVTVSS VL: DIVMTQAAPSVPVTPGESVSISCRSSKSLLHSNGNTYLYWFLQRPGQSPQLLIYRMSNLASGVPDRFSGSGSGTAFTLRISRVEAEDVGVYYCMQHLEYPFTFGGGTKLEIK in terms of % Positive cells is 2.28

Where do the numbers come from? From patent US20240360228A1.
